Entry source: PubChem BioAssay AID1963970

Tested on: 931267-113-T-J1-PDC multicell spheroid viability
Experiment: Anticancer human tumor 931267-113-T-J1-PDC patient-derived colon adenocarcinoma cell line growth inhibition [PI3K]
Details: second compound 0.01 µM; first compound 10 µM; hits give low values
measurement-kind: viability, T/C (%)
Entry rule: numbers only, all in %.

[in] Look up viability, T/C: Cn1nccc1Nc1nccc(-c2ccn(C(CO)c3ccc(Cl)c(F)c3)c(=O)c2)n1 (stereo not given) + COc1c(OCCCN2CCOCC2)ccc2c3n(c(=NC(=O)c4cnc(N)nc4)nc12)CCN3
[out] 22.4

[in] Quick one: viability, T/C for CC1(C)CCC(Nc2ncc(C(F)(F)F)c(-c3c[nH]c4c(P(C)(C)=O)c(C#N)ccc34)n2)CN1 (stereo not given) + CC(Nc1ccc2c(c1)OCCn1cc(N3C(=O)OCC3C(F)F)nc1-2)C(N)=O ?
[out] 49.8

[in] For CC(Cn1ccc(-c2ccc(C#N)c(Cl)c2)n1)NC(=O)c1cc(C(C)O)[nH]n1 (stereo not given) + COc1c(OCCCN2CCOCC2)ccc2c3n(c(=NC(=O)c4cnc(N)nc4)nc12)CCN3 , what is its reported viability, T/C?
[out] 85.9

[in] Which value of viability, T/C has been reported for C[C@@H](NC(=O)c1ncnc(N)c1Cl)c1ncc(C(=O)Nc2cc(C(F)(F)F)c(Cl)cn2)s1 + COc1c(OCCCN2CCOCC2)ccc2c3n(c(=NC(=O)c4cnc(N)nc4)nc12)CCN3 in the records?
[out] 74.2

[in] Please report the recorded viability, T/C for CC(C)NCC(C(=O)N1CCN(c2ncnc3c2C(C)CC3O)CC1)c1ccc(Cl)cc1 (stereo not given) + CC(Nc1ccc2c(c1)OCCn1cc(N3C(=O)OCC3C(F)F)nc1-2)C(N)=O .
[out] 69.8

###

System: 931267-113-T-J1-PDC multicell spheroid viability
Test: Anticancer human tumor 931267-113-T-J1-PDC cell line growth inhibition [PI3K];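 note: viability read 7 days after compound addition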
Settings: second compound 0.0316 µM; first compound 10 µM; hits give low values
measurement-kind: viability, T/C (%)
Kindly answer with a numeric value in %, unit omitted.

[in] Returns the measured viability, T/C for the input compound. Input: C=CC(=O)N1CCN(c2nc(=O)n(-c3c(C)ccnc3C(C)C)c3nc(-c4c(O)cccc4F)c(F)cc23)C(C)C1 (stereo not given) + Cc1nc(NC(=O)N2CCCC2C(N)=O)sc1-c1ccnc(C(C)(C)C(F)(F)F)c1
[out] 85.5

[in] Could you tell me which viability, T/C is on file for CC(Cn1ccc(-c2ccc(C#N)c(Cl)c2)n1)NC(=O)c1cc(C(C)O)[nH]n1 (stereo not given) + COc1c(OCCCN2CCOCC2)ccc2c3n(c(=NC(=O)c4cnc(N)nc4)nc12)CCN3 ?
[out] 70.5

[in] # get_value(readout='viability, T/C', item= C[C@@H](NC(=O)c1ncnc(N)c1Cl)c1ncc(C(=O)Nc2cc(C(F)(F)F)c(Cl)cn2)s1 + Cc1nc(NC(=O)N2CCCC2C(N)=O)sc1-c1ccnc(C(C)(C)C(F)(F)F)c1 )
[out] 82.8

[in] Which viability, T/C reading was recorded for the compound Cn1ncc(Cl)c1-c1cc(C(=O)NC(CN)Cc2cccc(F)c2)sc1Cl (stereo not given) + COc1c(OCCCN2CCOCC2)ccc2c3n(c(=NC(=O)c4cnc(N)nc4)nc12)CCN3 ?
[out] 34

[in] Would you kindly share the measured viability, T/C for CC1(C)CCC(CN2CCN(c3ccc(C(=O)NS(=O)(=O)c4ccc(NCC5CCOCC5)c([N+](=O)[O-])c4)c(Oc4cnc5[nH]ccc5c4)c3)CC2)=C(c2ccc(Cl)cc2)C1 + CC(Nc1ncnc2nc[nH]c12)c1cc2cccc(Cl)c2c(=O)n1-c1ccccc1 ?
[out] 28.5
